# Test system: NCI-H23 lung
# Procedure text: NCI-60 one-dose screen, 48 h (100 = growth as untreated, 0 = no growth, -100 = all killed)
# Reported conditions: 10 µM unless noted
Compounds without any hit were thinned out: in the full panel of roughly 83,000, 20% have a hit.
Assay metric: growth (%)
Number in %, nothing else.

Query :: Please look up its growth: CSc1nc2ccccc2cc1/C=[N+](\[O-])c1ccccc1
Result :: 70

Query :: Please look up its growth: COc1ccc2c(c1)c(-c1nc(-c3c[nH]c4ccncc34)cs1)cn2C
Result :: 46.3

Query :: Please look up its growth: COc1ccc(-c2nn(-c3cccc(Cl)c3)cc2-c2cc(-c3ccc(Br)cc3)nc(N)n2)cc1
Result :: 87.3

Query :: Please look up its growth: N#Cc1ccc2c(c1)C(=O)c1c-2n(CCCN)c(=O)c2cc([N+](=O)[O-])ccc12
Result :: -57.6

Query :: Please look up its growth: Cc1ccc(C2=Nc3c(N)ncnc3NC(c3cccc(Nc4ccnc5cc(C(F)(F)F)ccc45)c3)C2)cc1 (stereo not given)
Result :: 44.3

###

# Test system: SF-268 CNS
# Procedure text: NCI-60 one-dose screen, 48 h (100 = growth as untreated, 0 = no growth, -100 = all killed)
# Reported conditions: 10 µM unless noted
This is part of a sample that, as a whole, favours compounds with a hit. Of some 83,000 tested, about 20% had one in any assay.
Assay metric: growth (%)
Number in %, nothing else.

Query :: Please look up its growth: CC(C)(Sc1cc(C(C)(C)C)c(O)c(C(C)(C)C)c1)Sc1cc(C(C)(C)C)c(OC(=O)CCCC(=O)O)c(C(C)(C)C)c1
Result :: 63.1

Query :: Please look up its growth: CSc1nc2ccccc2cc1/C=[N+](\[O-])c1ccccc1
Result :: 56.6

Query :: Please look up its growth: c1ccc2cc(C[n+]3ccn(CCCCCCCCCCn4cc[n+](Cc5ccc6ccccc6c5)c4)c3)ccc2c1
Result :: 13.7

Query :: Please look up its growth: CC(=O)N1N=C(c2ccc(Nc3nc(Nc4ccccc4)nc(Nc4ccccc4)n3)cc2)CC1c1cccc([N+](=O)[O-])c1 (stereo not given)
Result :: 109

Query :: Please look up its growth: Oc1c(I)cc(I)cc1CNCc1ccccn1
Result :: 36.8

Query :: Please look up its growth: Cc1ccc(NC(=O)c2sc3nc(C)c(Br)c(C)c3c2N)cc1
Result :: 49

Query :: Please look up its growth: COc1ccc(/C=C(\C#N)n2nnc3ccc(Cl)cc32)cc1
Result :: 76.1

Query :: Please look up its growth: NNc1nc(-c2cccnc2)nc2c1sc(=S)n2-c1ccccc1
Result :: 89.6

Query :: Please look up its growth: CCc1ncnc2c1ccn2C(C)c1ccc(OC)c(F)c1 (stereo not given)
Result :: 63.2

Query :: Please look up its growth: CCCCCCCC[C@@H]1N[C@@H](C(=O)OC)Cc2c1[nH]c1ccccc21
Result :: 97.3

###

# Tested on: SK-MEL-2 melanoma
# Procedure text: NCI-60 one-dose screen, 48 h
# Reported conditions: 10 µM unless noted
Compounds without any hit were thinned out: in the full panel of roughly 83,000, 20% have a hit. Activity calls are given as the source filed them. The calls were made as follows: active = growth percent below 10; inactive = the rest.
Answer with one of the outcomes given here: active, inactive

Query :: Field: outcome | Entry: C1CN(SSN2CCOCC2)CCO1
Result :: inactive

Query :: Field: outcome | Entry: O=C(Nc1nc2cc(C(=O)N3CCN(C(c4ccccc4)c4ccccc4)CC3)ccc2o1)c1ccc(NC2CCCCC2)c([N+](=O)[O-])c1
Result :: inactive

Query :: Field: outcome | Entry: Nc1ncnc2c1C(c1ccc(Br)cc1)c1sc3c(F)cccc3c1O2 (stereo unspecified)
Result :: inactive

Query :: Field: outcome | Entry: O=c1[nH]c(Cc2nc3ccccc3s2)nc2cc(Br)ccc12
Result :: inactive

Query :: Field: outcome | Entry: COC1=CC(c2ccc[nH]2)=N/C1=C\c1[nH]c(C)c(C(=O)OC(C)C)c1C
Result :: active

Query :: Field: outcome | Entry: N#Cc1c(-c2ccccc2)[nH]c2ncc(-c3ccccc3)n2c1=O
Result :: inactive

Query :: Field: outcome | Entry: COC(=O)[C@]1(C)CCC[C@]2(C)[C@H]3C[C@H]4C(C(C)C)=C[C@]3(CC[C@H]21)[C@@H]1C(=O)CC[C@H](OCCC#N)[C@@H]14
Result :: inactive

Query :: Field: outcome | Entry: COC12C=C/C(=C(/C(=O)OCc3ccncn3)C(=O)CCCCCCCCC3(OC)C=C/C(=C(/C(=O)OCc4ccncn4)C(=O)CCCCCCCC1)O3)O2
Result :: inactive

Query :: Field: outcome | Entry: CC(=O)N1N=C(c2ccc(Nc3nc(Nc4ccccc4)nc(Nc4ccccc4)n3)cc2)CC1c1cccc([N+](=O)[O-])c1 (stereo unspecified)
Result :: inactive

Query :: Field: outcome | Entry: CCOC(=O)Cc1cnc(N/N=C(\C)c2cc3ccccc3o2)s1
Result :: inactive

Query :: Field: outcome | Entry: O=C(CN1CCCCC1)Nc1nc(-c2cc3ccccc3oc2=O)cs1
Result :: inactive

Query :: Field: outcome | Entry: CCCCCOC(=O)c1c(C)[nH]c(/C=C2\N=C(c3ccc[nH]3)C=C2OC)c1C
Result :: active

Query :: Field: outcome | Entry: Fc1cccc(Oc2ccc(Nc3ncnc4ccc(OCCCN5CCOCC5)cc34)cc2Cl)c1
Result :: inactive

Query :: Field: outcome | Entry: NC(=O)C(=O)c1ccccc1NC=O
Result :: inactive

Query :: Field: outcome | Entry: COc1ccc(-c2ccc(=O)oc2-c2cc(OC)c(OC)c(OC)c2)cc1O
Result :: inactive

Query :: Field: outcome | Entry: O=c1scc(-c2ccc(C(F)(F)F)cc2)s1
Result :: inactive

Query :: Field: outcome | Entry: CN(C)CC1CCC(CN(C)C)C1=O (stereo unspecified)
Result :: inactive

Query :: Field: outcome | Entry: COc1cc(-c2cncn2-c2ccc(-c3nc4ccc(F)cc4s3)cc2)ccc1F
Result :: inactive

Query :: Field: outcome | Entry: COc1ccc(/C=C/C(=O)c2ccc(Nc3ccnc4cc(Cl)ccc34)cc2)cc1
Result :: inactive

Query :: Field: outcome | Entry: CCCCCCCCCCC(CN(CC)CC)C(O)c1ccccc1 (stereo unspecified)
Result :: inactive

Query :: Field: outcome | Entry: COc1cc2oc(-c3cccc(NC(=O)c4ccccc4)c3)cc(=O)c2c(OC)c1OC
Result :: inactive

###

# Tested on: K-562 leukemia
# Procedure text: NCI-60 one-dose screen, 48 h
# Reported conditions: 10 µM unless noted
# Method: Cells are grown in 96 well plates and exposed to the test compound for 48 hours. Compounds are tested at a single concentration, which is 10^-5 M for most compounds. The reported endpoint is percent growth (GI% or GIPRCNT), where numbers from 0 - 100% represent growth inhibition, and numbers from -100% - 0 represent cell death. For example, a value of 40 represents 60% growth inhibition. A value of 0 means no net growth occurred over the course of the experiment. […]
Compounds without any hit were thinned out: in the full panel of roughly 83,000, 20% have a hit. The source made the active and inactive calls. The calls were made as follows: active = growth percent below 10; inactive = the rest.
Answer with one of the outcomes given here: T (active), F (inactive)

Query :: Field: outcome | Entry: Cn1cc(-c2csc(-c3c[nH]c4ccc(Br)cc34)n2)c2ccnc(Cl)c21
Result :: F

Query :: Field: outcome | Entry: CCOC(=O)c1c(NC(=O)c2ccc(Cl)cc2)sc2c(CN(C)C)c(O)ccc12
Result :: T

Query :: Field: outcome | Entry: O=C(Nc1nc2cc(C(=O)N3CCN(C(c4ccccc4)c4ccccc4)CC3)ccc2o1)c1ccc(NC2CCCCC2)c([N+](=O)[O-])c1
Result :: F

Query :: Field: outcome | Entry: O=C(C[C@]1(O)C(=O)Nc2ccccc21)c1cccc(C(F)(F)F)c1
Result :: F

Query :: Field: outcome | Entry: CC1(C)CC(=O)C2=C(C1)N(c1ccc(OC(F)(F)F)cc1)C(N)=C(C#N)C2c1ccc(Br)cc1F (stereo not given)
Result :: F

###

# System: U251 CNS
# Procedure text: NCI-60 one-dose screen, 48 h (100 = growth as untreated, 0 = no growth, -100 = all killed)
# Reported conditions: 10 µM unless noted
Compounds without any hit were thinned out: in the full panel of roughly 83,000, 20% have a hit.
Categories are defined by ranges of growth, namely low interval (below 40%), middle interval (40% to below 90%), high interval (90% or more)

Query :: Pick a category. Item: CCN1CCN(C(=O)[C@]23CCC(C)(C)C[C@@H]2C2=CC[C@@H]4[C@@]5(C)CCC(=O)C(C)(C)[C@@H]5CC[C@@]4(C)[C@]2(C)CC3)CC1
Result :: middle interval

Query :: Pick a category. Item: O=C(CSc1oc(-c2ccccc2)nc1S(=O)(=O)c1ccccc1)Nc1ccc(F)cc1
Result :: high interval

Query :: Pick a category. Item: Cc1ccc(C)n1-c1ccccc1-n1c(C)ccc1C
Result :: high interval

Query :: Pick a category. Item: COc1ccc2[nH]c(C(=O)N3CCN(C(=O)OCc4ccc5c(Cl)cc(Cl)c(O)c5n4)CC3)cc2c1
Result :: low interval

Query :: Pick a category. Item: CC(C)c1ccc(C(=O)Nc2sc3c(c2C(N)=O)CCC(=O)C3)cc1
Result :: low interval

Query :: Pick a category. Item: CCOC(=O)C/C(=N\Nc1cc(=O)[nH]c2ccc(Br)cc12)C(=O)OCC
Result :: high interval

Query :: Pick a category. Item: O=C(/C=C/c1cccs1)Nc1ncc(Cc2ccccc2F)s1
Result :: low interval

Query :: Pick a category. Item: COCCOc1cc2ncnc(N3CCN(c4cc(S(C)(=O)=O)c(C)cc4Cl)CC3)c2cc1OCCOC
Result :: middle interval

Query :: Pick a category. Item: CCCc1c(OC(=O)c2ccccc2)nc2[nH]c(=O)sc2c1C
Result :: high interval

Query :: Pick a category. Item: O=C1NC(=O)C(Cc2ccc(OCc3ccc(-c4ccc(Cl)cc4Cl)cc3)cc2)S1 (stereo not given)
Result :: middle interval

Query :: Pick a category. Item: CS(=O)(=O)Nc1cc(-c2ccc3ncnc(Nc4ccc5c(cnn5Cc5ccc(F)cc5)c4)c3c2)cnc1Cl
Result :: low interval

Query :: Pick a category. Item: CC(=O)N1N=C(c2ccc(C(F)(F)F)c(F)c2)CC1c1[nH]c(C)c(C(=O)NCC(F)(F)F)c1C (stereo not given)
Result :: middle interval

Query :: Pick a category. Item: O=C1/C(=C/c2ccccc2O)CC/C1=C\c1ccccc1O
Result :: middle interval

Query :: Pick a category. Item: COc1ccc(/C=C/C(=O)c2cc3c(N)c(C(=O)Nc4cccc5ccccc45)sc3nc2C)cc1
Result :: middle interval

Query :: Pick a category. Item: Cc1cccc(/C=C/c2c(C(=O)/C=C/c3ccccc3)c(C)nc3ccccc23)c1
Result :: low interval

Query :: Pick a category. Item: COc1ccc(OC)c(Nc2nnc(-c3ccc(O)c(OC)c3)o2)c1
Result :: middle interval

Query :: Pick a category. Item: Oc1ccc(Cl)cc1/C=N\NC(=S)N/N=C/c1cc(Cl)ccc1O
Result :: low interval

These data points were gathered from PubChem BioAssay (NCI).
